assay: activity coefficient (dimensionless); of the first substance listed, at infinite dilution; xn = mol fraction of the nth substance listed; details: 353.15 K; Liquid; Chromatography; x1 = 0
Catalogue of activity coefficient values
Lab note: jot down the number only; don't add units.

Take a look at these entries with their results.
[[record]]
compound = "CCOC(C)=O [ethyl acetate] + CCn1cc[n+](C)c1.F[B-](F)(F)F"
result_number = 2.79

[[record]]
compound = "C=Cc1ccccc1 [styrene] + CCn1cc[n+](C)c1.F[B-](F)(F)F"
result_number = 3.65

[[record]]
compound = "ClC(Cl)Cl [trichloromethane] + CCn1cc[n+](C)c1.F[B-](F)(F)F"
result_number = 1.46

[[record]]
compound = "CCCCCCCCC [nonane] + CCn1cc[n+](C)c1.F[B-](F)(F)F"
result_number = 235

[[record]]
compound = "Cc1cccc(C)c1 [1,3-dimethylbenzene] + CCn1cc[n+](C)c1.F[B-](F)(F)F"
result_number = 4.98


If you can, please state the reported activity coefficient value of C1CCOC1 [tetrahydrofuran] + CCn1cc[n+](C)c1.F[B-](F)(F)F . 1.77

If you can, please state the reported activity coefficient value of c1ccccc1 [benzene] + CCn1cc[n+](C)c1.F[B-](F)(F)F . 1.99

###

assay: activity coefficient (dimensionless); of the first substance listed, at infinite dilution; xn = mol fraction of the nth substance listed; settings: 313.15 K; Liquid; Chromatography; x1 = 0
Short version: activity coefficient at least 6 is MET, less is NOT MET.

Example entries and their recorded answers appear below.
[[record]]
compound = "C=Cc1ccccc1 [styrene] + CCn1cc[n+](C)c1.F[B-](F)(F)F"
classification = "NOT MET"

[[record]]
compound = "CCc1ccccc1 [ethylbenzene] + CCn1cc[n+](C)c1.F[B-](F)(F)F"
classification = "MET"

[[record]]
compound = "CC(C)CC(C)(C)C [2,2,4-trimethylpentane] + CCn1cc[n+](C)c1.F[B-](F)(F)F"
classification = "MET"

[[record]]
compound = "CCCCC [pentane] + CCn1cc[n+](C)c1.F[B-](F)(F)F"
classification = "MET"


# check: activity coefficient of C1CCCCC1 [cyclohexane] + CCn1cc[n+](C)c1.F[B-](F)(F)F is greater than or equal to 6 MET

# check: activity coefficient of Cc1ccccc1C [1,2-dimethylbenzene] + CCn1cc[n+](C)c1.F[B-](F)(F)F is greater than or equal to 6 NOT MET

# check: activity coefficient of ClC(Cl)Cl [trichloromethane] + CCn1cc[n+](C)c1.F[B-](F)(F)F is greater than or equal to 6 NOT MET

# check: activity coefficient of C1=CCCCC1 [cyclohexene] + CCn1cc[n+](C)c1.F[B-](F)(F)F is greater than or equal to 6 MET

# check: activity coefficient of CCCCCCC [heptane] + CCn1cc[n+](C)c1.F[B-](F)(F)F is greater than or equal to 6 MET

###

assay: activity coefficient (dimensionless); of the first substance listed, at infinite dilution; xn = mol fraction of the nth substance listed; conditions: 303.15 K; Liquid; Chromatography; x1 = 0
readout.type: activity coefficient
Lab note: jot down the number only; don't add units.

Take a look at these entries with their results.
[[record]]
molecule = "Cc1ccc(C)cc1 [1,4-dimethylbenzene] + CCn1cc[n+](C)c1.F[B-](F)(F)F"
readout_type = "activity coefficient"
result_number = 5.41

[[record]]
molecule = "CCOC(C)=O [ethyl acetate] + CCn1cc[n+](C)c1.F[B-](F)(F)F"
readout_type = "activity coefficient"
result_number = 2.94

[[record]]
molecule = "ClC(Cl)Cl [trichloromethane] + CCn1cc[n+](C)c1.F[B-](F)(F)F"
readout_type = "activity coefficient"
result_number = 1.36

[[record]]
molecule = "C1COCCO1 [1,4-dioxane] + CCn1cc[n+](C)c1.F[B-](F)(F)F"
readout_type = "activity coefficient"
result_number = 1.35

[[record]]
molecule = "Cc1cccc(C)c1 [1,3-dimethylbenzene] + CCn1cc[n+](C)c1.F[B-](F)(F)F"
readout_type = "activity coefficient"
result_number = 5.88

[[record]]
molecule = "CCCCC [pentane] + CCn1cc[n+](C)c1.F[B-](F)(F)F"
readout_type = "activity coefficient"
result_number = 68.8

[[record]]
molecule = "ClCCl [dichloromethane] + CCn1cc[n+](C)c1.F[B-](F)(F)F"
readout_type = "activity coefficient"
result_number = 1.12

[[record]]
molecule = "CCCCCCCCCC [decane] + CCn1cc[n+](C)c1.F[B-](F)(F)F"
readout_type = "activity coefficient"
result_number = 1110

[[record]]
molecule = "C1CCCCC1 [cyclohexane] + CCn1cc[n+](C)c1.F[B-](F)(F)F"
readout_type = "activity coefficient"
result_number = 70.5

[[record]]
molecule = "CC(C)CC(C)(C)C [2,2,4-trimethylpentane] + CCn1cc[n+](C)c1.F[B-](F)(F)F"
readout_type = "activity coefficient"
result_number = 158


If you can, please state the reported activity coefficient value of ClC(Cl)(Cl)Cl [tetrachloromethane] + CCn1cc[n+](C)c1.F[B-](F)(F)F . 4.31

###

Catalogue of activity coefficient values
assay: activity coefficient (dimensionless); of the first substance listed, at infinite dilution; xn = mol fraction of the nth substance listed; conditions: 353.15 K; Liquid; Chromatography; x1 = 0
Lab note: jot down the number only; don't add units.

Take a look at these entries with their results.
[[record]]
molecule = "CCCCCCC [heptane] + CCn1cc[n+](C)c1.F[B-](F)(F)F"
result_number = 96

[[record]]
molecule = "CC(C)=O [acetone] + CCn1cc[n+](C)c1.F[B-](F)(F)F"
result_number = 1.33

[[record]]
molecule = "CCc1ccccc1 [ethylbenzene] + CCn1cc[n+](C)c1.F[B-](F)(F)F"
result_number = 5.44

[[record]]
molecule = "CC(C)CC(C)(C)C [2,2,4-trimethylpentane] + CCn1cc[n+](C)c1.F[B-](F)(F)F"
result_number = 85.8

[[record]]
molecule = "C1COCCO1 [1,4-dioxane] + CCn1cc[n+](C)c1.F[B-](F)(F)F"
result_number = 1.49

[[record]]
molecule = "C1CCCCC1 [cyclohexane] + CCn1cc[n+](C)c1.F[B-](F)(F)F"
result_number = 27.5

[[record]]
molecule = "ClCCl [dichloromethane] + CCn1cc[n+](C)c1.F[B-](F)(F)F"
result_number = 1.36

[[record]]
molecule = "CC#N [acetonitrile] + CCn1cc[n+](C)c1.F[B-](F)(F)F"
result_number = 0.792


Now look at this one.
If you can, please state the reported activity coefficient value of Cc1ccc(C)cc1 [1,4-dimethylbenzene] + CCn1cc[n+](C)c1.F[B-](F)(F)F . 4.88

###

assay: activity coefficient (dimensionless); of the first substance listed, at infinite dilution; xn = mol fraction of the nth substance listed; conditions: 363.15 K; Liquid; Chromatography; x1 = 0
activity coefficient strictly under 4 means fulfilled; at 4 or over means not fulfilled.

[[record]]
compound = "ClCCl [dichloromethane] + CCn1cc[n+](C)c1.F[B-](F)(F)F"
classification = "fulfilled"

[[record]]
compound = "C=Cc1ccccc1 [styrene] + CCn1cc[n+](C)c1.F[B-](F)(F)F"
classification = "fulfilled"

[[record]]
compound = "CCCCCCCCC [nonane] + CCn1cc[n+](C)c1.F[B-](F)(F)F"
classification = "not fulfilled"

[[record]]
compound = "CCCCCCC [heptane] + CCn1cc[n+](C)c1.F[B-](F)(F)F"
classification = "not fulfilled"

[[record]]
compound = "Cc1ccccc1C [1,2-dimethylbenzene] + CCn1cc[n+](C)c1.F[B-](F)(F)F"
classification = "not fulfilled"


// switching to the query compound
Decide: activity coefficient of CC(C)CC(C)(C)C [2,2,4-trimethylpentane] + CCn1cc[n+](C)c1.F[B-](F)(F)F strictly below 4? not fulfilled

###

assay: activity coefficient (dimensionless); of the first substance listed, at infinite dilution; xn = mol fraction of the nth substance listed; settings: 313.15 K; Liquid; Chromatography; x1 = 0
Class (required): determined from activity coefficient; valid ranges are lower bin (below 2), middle bin (2 to below 5), upper bin (5 or more)

Example entries and their recorded answers appear below.
[[record]]
molecule = "Cc1cccc(C)c1 [1,3-dimethylbenzene] + CCn1cc[n+](C)c1.F[B-](F)(F)F"
classification = "upper bin"

[[record]]
molecule = "ClC(Cl)(Cl)Cl [tetrachloromethane] + CCn1cc[n+](C)c1.F[B-](F)(F)F"
classification = "middle bin"

[[record]]
molecule = "CCCCCCCC [octane] + CCn1cc[n+](C)c1.F[B-](F)(F)F"
classification = "upper bin"

[[record]]
molecule = "C1CCOC1 [tetrahydrofuran] + CCn1cc[n+](C)c1.F[B-](F)(F)F"
classification = "lower bin"

[[record]]
molecule = "Cc1ccccc1 [toluene] + CCn1cc[n+](C)c1.F[B-](F)(F)F"
classification = "middle bin"

[[record]]
molecule = "Cc1ccc(C)cc1 [1,4-dimethylbenzene] + CCn1cc[n+](C)c1.F[B-](F)(F)F"
classification = "upper bin"


Could you place CCOC(C)=O [ethyl acetate] + CCn1cc[n+](C)c1.F[B-](F)(F)F in its proper category? Many thanks. middle bin

The origin of these recorded values is the NIST ThermoML archive (doi:10.1021/je800218g).
